Hello, the source for this data is patent US9688764B2, in case you need it.

Measured FACS Cell Binding (Fold Above Background) of individual entries
- Tested target: T1, T47D (native PRLR expressing cell line) (Homo sapiens, UniProt P16471)
- T1 construct: a native PRLR expressing cell line (T47D); endogenous in cells; host or cells: T47D
- T1 sequence (P16471 25-622): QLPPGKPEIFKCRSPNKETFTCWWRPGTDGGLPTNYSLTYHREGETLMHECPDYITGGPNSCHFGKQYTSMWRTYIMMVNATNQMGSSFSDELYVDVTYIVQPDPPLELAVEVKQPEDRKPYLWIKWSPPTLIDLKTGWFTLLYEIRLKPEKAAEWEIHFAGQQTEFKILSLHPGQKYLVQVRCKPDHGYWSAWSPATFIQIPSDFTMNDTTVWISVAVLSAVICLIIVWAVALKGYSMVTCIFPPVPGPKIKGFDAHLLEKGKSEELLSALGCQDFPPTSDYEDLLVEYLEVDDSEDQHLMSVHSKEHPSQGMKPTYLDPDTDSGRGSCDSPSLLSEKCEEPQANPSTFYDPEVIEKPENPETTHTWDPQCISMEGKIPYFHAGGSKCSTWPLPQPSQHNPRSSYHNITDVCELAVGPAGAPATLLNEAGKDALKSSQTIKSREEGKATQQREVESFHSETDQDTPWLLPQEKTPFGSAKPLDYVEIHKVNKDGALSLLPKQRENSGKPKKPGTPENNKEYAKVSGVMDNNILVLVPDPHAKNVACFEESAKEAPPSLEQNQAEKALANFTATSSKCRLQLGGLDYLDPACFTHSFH
- Assay text: FACS cell surface binding
- Description: The ability of anti-PRLR antibodies to selectively bind PRLR expressing cell lines was next determined. […] Cell surface expression of PRLR on 293/hPRLR cells was assessed via FACS analysis. […] Following two additional washes, samples were run on a Hypercyt® cytometer and analyzed in FORECYT™ (IntelliCyt, Albuquerque, N. Mex.). The mean fluorescence intensities (MFI) were expressed as fold change above isotype control levels (background). […]
The reply should be a number in Fold Above Background, with the unit left off.

Lookup: Which FACS Cell Binding (Fold Above Background) reading was recorded for the molecule H1H6975N: human IgG1 Fc form of H2M6975N; anti-PRLR; HCVR/LCVR SEQ ID NOs 370/378 (antibody, V domains shown, human IgG1 Fc) VH: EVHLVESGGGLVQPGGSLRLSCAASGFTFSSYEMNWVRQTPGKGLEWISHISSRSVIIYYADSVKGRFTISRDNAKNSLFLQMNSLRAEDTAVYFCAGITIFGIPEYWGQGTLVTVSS VL: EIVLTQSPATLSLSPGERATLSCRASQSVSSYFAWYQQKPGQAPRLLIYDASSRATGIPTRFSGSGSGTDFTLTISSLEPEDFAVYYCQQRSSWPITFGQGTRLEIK ?
Found: 46

Lookup: Report FACS Cell Binding (Fold Above Background) for H1H6793P: anti-PRLR antibody, human IgG1 Fc; HCVR/LCVR SEQ ID NOs 146/154 (antibody, V domains shown, human IgG1 Fc) VH: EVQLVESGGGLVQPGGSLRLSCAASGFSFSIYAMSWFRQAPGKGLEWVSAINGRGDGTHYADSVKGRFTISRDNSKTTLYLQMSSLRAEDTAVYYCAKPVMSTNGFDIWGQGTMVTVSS VL: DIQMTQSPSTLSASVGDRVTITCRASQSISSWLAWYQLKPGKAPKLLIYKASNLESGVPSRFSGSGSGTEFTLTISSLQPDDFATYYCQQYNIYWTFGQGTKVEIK please.
Found: 43
